# Tested on: SW480
# Method: Antiproliferative activity against human SW480 cells after 48 hrs by MTT assay
# Type: functional, cell-based
# Condition description: SW480, 48 h
Just a reminder that ties go to Not satisfied: only IC50 strictly below 10 µM counts as Satisfied.

A selection of reference data follows.
O=c1cc(-n2cc(COc3cccnc3)nn2)c2cc(Br)ccc2o1 ... Not satisfied
COc1ccc2oc(=O)cc(-n3cc(COc4ccc(F)cc4)nn3)c2c1 ... Not satisfied
O=c1cc(N2CCN(Cc3ccccc3O)CC2)c2ccccc2o1 ... Not satisfied
O=c1cc(N2CCN(Cc3ccc(F)cc3)CC2)c2ccccc2o1 ... Not satisfied

Input `O=c1cc(-n2cc(COc3ccccc3)nn2)c2ccc(OS(=O)(=O)c3ccc(F)cc3)cc2o1` ; condition: IC50 strictly below 10 µM. Does it hold? Not satisfied

Input `O=c1cc(-n2cc(COc3ccnc4ccc(Br)cc34)nn2)c2cc(Br)ccc2o1` ; condition: IC50 strictly below 10 µM. Does it hold? Not satisfied

Input `O=c1cc(-n2cc(COc3ccccc3O)nn2)c2cc(Br)ccc2o1` ; condition: IC50 strictly below 10 µM. Does it hold? Not satisfied

Input `Nc1ccc(OCc2cn(-c3cc(=O)oc4ccc(Br)cc34)nn2)cc1` ; condition: IC50 strictly below 10 µM. Does it hold? Satisfied

Input `CCc1ccc(OCc2cn(-c3cc(=O)oc4ccc(Br)cc34)nn2)cc1` ; condition: IC50 strictly below 10 µM. Does it hold? Not satisfied

Input `COC(=O)c1ccc(OCc2cn(-c3cc(=O)oc4ccc(Br)cc34)nn2)cc1` ; condition: IC50 strictly below 10 µM. Does it hold? Satisfied

Input `COc1ccc(CN2CCN(c3cc(=O)oc4ccccc34)CC2)cc1OC` ; condition: IC50 strictly below 10 µM. Does it hold? Not satisfied

###

Entries and their measured pIC50 follow.
# Tested on: SW480
# Method: Antiproliferative activity against human SW480 cells after 48 hrs by MTT assay
# Format: functional, cell-based
# Condition description: SW480, 48 h
API: returns pIC50 as number; meaning -log10 of concentration in mol/L.

Look over these answered cases.
O=c1cc(-n2cc(COc3ccc(F)cc3)nn2)c2cc(Br)ccc2o1 ... 5.75
O=c1cc(-n2cc(COc3ccc(F)cc3)nn2)c2cc(O)ccc2o1 ... 5.57
O=c1cc(N2CCN(CCOc3ccc(F)cc3)CC2)c2ccccc2o1 ... 4.62

// below: pIC50 requested for another compound
Requested field: pIC50. Item: `O=c1cc(-n2cc(CSc3ccccc3)nn2)c2cc(Br)ccc2o1` 4.81

###

Entries and their measured IC50 follow.
# Tested on: MCF7
# Method: Antiproliferative activity against human MCF7 cells after 48 hrs by MTT assay
# Format: functional, cell-based
# Condition description: MCF7, 48 h

O=c1cc(N2CCN(Cc3ccccc3O)CC2)c2ccccc2o1 ... > 50 µM

Requested field: IC50. Item: `COc1cc(CN2CCN(c3cc(=O)oc4ccccc34)CC2)ccc1O` > 50 µM

Requested field: IC50. Item: `O=c1cc(N2CCN(Cc3ccccc3)CC2)c2ccccc2o1` > 50 µM

###

# Test system: MCF7
# Method: Antiproliferative activity against human MCF7 cells after 48 hrs by MTT assay
# Format: functional, cell-based
# Condition description: MCF7, 48 h
pIC50: −log10 of the molar value.
Each entry gets Condition not met if its pIC50 stays under 5, and Condition met if its pIC50 is 5 or above.

COc1ccc(CN2CCN(c3cc(=O)oc4ccccc34)CC2)cc1 ... Condition not met
O=c1cc(-n2cc(CNc3ccccc3)nn2)c2cc(Br)ccc2o1 ... Condition not met
CS(=O)(=O)Oc1ccc2c(-n3cc(COc4ccccc4)nn3)cc(=O)oc2c1 ... Condition not met

Shift focus to the following entry.
Is pIC50 at least 5? Consider `COc1ccc(CN2CCN(c3cc(=O)oc4ccccc34)CC2)cc1OC` Condition not met
